Hey, just so you know, these numbers are from patent US5424293A.

# System: gel-filtered human platelets
# procedure summary: Inhibition of aggregation of gel-filtered human platelets after ADP or thrombin stimulation
# Type: cell-based
# protocol conditions: inhibition of aggregation of gel-filtered human platelets, ADP stimulation; read-out: ADP-stimulated IC50
measurement type: pIC50
Reminder that pIC50 is minus the log10 of a molar concentration.

[ask] Give pIC50 for N=C(N)Nc1ccc(C2NC(=O)N(CC(=O)N[C@@H](CC(=O)O)C(=O)N[C@H](C(=O)O)c3ccccc3)C2=O)cc1 (stereo partly shown) [Example 1]
[reply] 6.70
